This collection of values is drawn from patent US20250018014A1.

What 50% inhibition concentration, Regnase-1 phosphorylation by TBK1 (AlphaScreen) was measured for each of the following?
study.target: T1, C-terminal domain-deleted human Regnase-1 (amino acids 1 to 546) with N-terminal FLAG tag and C-terminal BirA … (human, UniProt Q5D1E8 1-546)
T1 sequence: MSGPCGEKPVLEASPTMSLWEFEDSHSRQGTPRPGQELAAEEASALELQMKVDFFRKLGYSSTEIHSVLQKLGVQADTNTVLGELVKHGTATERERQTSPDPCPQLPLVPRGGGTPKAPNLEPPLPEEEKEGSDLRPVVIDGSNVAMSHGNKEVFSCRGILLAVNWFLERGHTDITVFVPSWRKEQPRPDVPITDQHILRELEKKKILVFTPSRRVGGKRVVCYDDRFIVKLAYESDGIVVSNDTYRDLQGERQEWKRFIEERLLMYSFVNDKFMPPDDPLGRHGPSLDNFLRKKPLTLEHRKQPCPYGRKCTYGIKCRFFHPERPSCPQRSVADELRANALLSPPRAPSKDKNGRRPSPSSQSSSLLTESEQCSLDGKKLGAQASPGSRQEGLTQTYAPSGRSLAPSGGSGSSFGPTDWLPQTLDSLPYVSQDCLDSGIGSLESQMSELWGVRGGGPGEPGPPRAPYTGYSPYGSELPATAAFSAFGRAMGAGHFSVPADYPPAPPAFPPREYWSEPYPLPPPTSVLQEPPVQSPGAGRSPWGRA
experimental.details: cell-based or functional assay
Positions of bridges follow the written chain, without caps; N, C: chain ends. Non-standard residues stand in square brackets, D forms with d. *: point of attachment. Pyrrolidide = C1CCN(*)C1; dNMeA = CN[C@H](C)C(=O)O
The reply should be a number in µM, with the unit left off.

q: Please report 50% inhibition concentration, Regnase-1 phosphorylation by TBK1 (AlphaScreen) for the following binder: XNSWYRIWGLD (HELM PEPTIDE1{[meA].N.S.W.Y.R.I.W.G.L.D.[C1CCN([*:1])C1]}$PEPTIDE1,PEPTIDE1,1:R1-11:R3$$$V2.0; SMILES CC[C@H](C)[C@@H]1NC(=O)[C@H](CCCNC(=N)N)NC(=O)[C@H](Cc2ccc(O)cc2)NC(=O)[C@H](Cc2c[nH]c3ccccc23)NC(=O)[C@H](CO)NC(=O)[C@H](CC(N)=O)NC(=O)[C@H](C)N(C)C(=O)C[C@@H](C(=O)N2CCCC2)NC(=O)[C@H](CC(C)C)NC(=O)CNC(=O)[C@H](Cc2c[nH]c3ccccc23)NC1=O) [PP22]
a: 22.8

q: Please report 50% inhibition concentration, Regnase-1 phosphorylation by TBK1 (AlphaScreen) for the following binder: XHSNAWYNIWD (HELM PEPTIDE1{[meA].H.S.N.A.W.Y.N.I.W.D.[C1CCN([*:1])C1]}$PEPTIDE1,PEPTIDE1,1:R1-11:R3$$$V2.0; SMILES CC[C@H](C)[C@@H]1NC(=O)[C@H](CC(N)=O)NC(=O)[C@H](Cc2ccc(O)cc2)NC(=O)[C@H](Cc2c[nH]c3ccccc23)NC(=O)[C@H](C)NC(=O)[C@H](CC(N)=O)NC(=O)[C@H](CO)NC(=O)[C@H](Cc2c[nH]cn2)NC(=O)[C@H](C)N(C)C(=O)C[C@@H](C(=O)N2CCCC2)NC(=O)[C@H](Cc2c[nH]c3ccccc23)NC1=O) [PP5]
a: 19.1

q: Please report 50% inhibition concentration, Regnase-1 phosphorylation by TBK1 (AlphaScreen) for the following binder: XNFNSAYYRAIWD (HELM PEPTIDE1{[meA].N.F.N.S.A.Y.Y.R.A.I.W.D.[C1CCN([*:1])C1]}$PEPTIDE1,PEPTIDE1,1:R1-13:R3$$$V2.0; SMILES CC[C@H](C)[C@@H]1NC(=O)[C@H](C)NC(=O)[C@H](CCCNC(=N)N)NC(=O)[C@H](Cc2ccc(O)cc2)NC(=O)[C@H](Cc2ccc(O)cc2)NC(=O)[C@H](C)NC(=O)[C@H](CO)NC(=O)[C@H](CC(N)=O)NC(=O)[C@H](Cc2ccccc2)NC(=O)[C@H](CC(N)=O)NC(=O)[C@H](C)N(C)C(=O)C[C@@H](C(=O)N2CCCC2)NC(=O)[C@H](Cc2c[nH]c3ccccc23)NC1=O) [PP7]
a: 4.7

q: Please report 50% inhibition concentration, Regnase-1 phosphorylation by TBK1 (AlphaScreen) for the following binder: XPNSSWFKIWD (HELM PEPTIDE1{[C[C@H](C(=O)[*:2])N(C)[*:1]].P.N.S.S.W.F.K.I.W.D.[C1CCN([*:1])C1]}$PEPTIDE1,PEPTIDE1,1:R1-11:R3$$$V2.0; SMILES CC[C@H](C)[C@@H]1NC(=O)[C@H](CCCCN)NC(=O)[C@H](Cc2ccccc2)NC(=O)[C@H](Cc2c[nH]c3ccccc23)NC(=O)[C@H](CO)NC(=O)[C@H](CO)NC(=O)[C@H](CC(N)=O)NC(=O)[C@@H]2CCCN2C(=O)[C@@H](C)N(C)C(=O)C[C@@H](C(=O)N2CCCC2)NC(=O)[C@H](Cc2c[nH]c3ccccc23)NC1=O) [PP6]
a: 14.5

q: Please report 50% inhibition concentration, Regnase-1 phosphorylation by TBK1 (AlphaScreen) for the following binder: XRFRQWKWVYPD (HELM PEPTIDE1{[meA].R.F.R.Q.W.K.W.V.Y.P.D.[C1CCN([*:1])C1]}$PEPTIDE1,PEPTIDE1,1:R1-12:R3$$$V2.0; SMILES CC(C)[C@@H]1NC(=O)[C@H](Cc2c[nH]c3ccccc23)NC(=O)[C@H](CCCCN)NC(=O)[C@H](Cc2c[nH]c3ccccc23)NC(=O)[C@H](CCC(N)=O)NC(=O)[C@H](CCCNC(=N)N)NC(=O)[C@H](Cc2ccccc2)NC(=O)[C@H](CCCNC(=N)N)NC(=O)[C@H](C)N(C)C(=O)C[C@@H](C(=O)N2CCCC2)NC(=O)[C@@H]2CCCN2C(=O)[C@H](Cc2ccc(O)cc2)NC1=O) [PP13]
a: 17.7

q: Please report 50% inhibition concentration, Regnase-1 phosphorylation by TBK1 (AlphaScreen) for the following binder: [dNMeA]EDTPEDDHD-Pyrrolidide (lactam N-10) [PP25]
a: 16.1

q: Please report 50% inhibition concentration, Regnase-1 phosphorylation by TBK1 (AlphaScreen) for the following binder: XNSWYINIWGHD (HELM PEPTIDE1{[meA].N.S.W.Y.I.N.I.W.G.H.D.[C1CCN([*:1])C1]}$PEPTIDE1,PEPTIDE1,1:R1-12:R3$$$V2.0; SMILES CC[C@H](C)[C@@H]1NC(=O)[C@H](CC(N)=O)NC(=O)[C@H]([C@@H](C)CC)NC(=O)[C@H](Cc2ccc(O)cc2)NC(=O)[C@H](Cc2c[nH]c3ccccc23)NC(=O)[C@H](CO)NC(=O)[C@H](CC(N)=O)NC(=O)[C@H](C)N(C)C(=O)C[C@@H](C(=O)N2CCCC2)NC(=O)[C@H](Cc2c[nH]cn2)NC(=O)CNC(=O)[C@H](Cc2c[nH]c3ccccc23)NC1=O) [PP15]
a: 9.5

q: Please report 50% inhibition concentration, Regnase-1 phosphorylation by TBK1 (AlphaScreen) for the following binder: [dNMeA]PTSSWYKIWD-Pyrrolidide (lactam N-11) [PP23]
a: 29.7
